Assay: Conductivity measurements of transport buffers
Format: physicochemical
Conditions: conductivity
Parameter Measured: Measurement 2 (mS/cm)
Give just the numeric value; mS/cm need not be written.

{"columns": ["Compound", "Measurement 2 / mS/cm"],
 "data": [
  ["[Cl-].[Cl-].[Mg+2] [10 mM MgCl2, MgCl2]", 2.02]
]}

// query Fill blank: measured Measurement 2 of the compound [Cl-].[Na+] [10 mM NaCl, NaCl] is ____.
// result 1.10

// query Dear colleague, I am looking for the recorded Measurement 2 of the following compound: O=C([O-])CC(O)(CC(=O)[O-])C(=O)[O-].[Na+].[Na+].[Na+] [3.3 mM NaCitrate, sodium citrate]
// result 1.03

// query State the recorded Measurement 2 for this entry: NC(CO)(CO)CO [50 mM TRIS, TRIS]
// result 3.14

// query Value lookup for Measurement 2; key = O=C([O-])C(=O)[O-].[Na+].[Na+] [5 mM NaOxalate]
// result 1.03

---

Each entry below lists one item and its recorded log10 conductivity value.
Assay: Buffer capacity, pH and conductivity of buffers used on the APEX chip
Units before log transform: μS; reported quantity: conductivity; transform: log10.

The examples below pair each entry with its known result.
{"columns": ["Compound", "Parameter Measured", "Result Value"],
 "data": [
  ["NCCC(=O)O [β-Alanine]", "log10 conductivity", 1.00],
  ["N[C@@H](CS)C(=O)O [Cysteine]", "log10 conductivity", 1.40],
  ["NCCS(=O)(=O)O [Taurine]", "log10 conductivity", 0.65],
  ["NCCCC[C@H](N)C(=O)O [Lysine]", "log10 conductivity", 2.68]
]}

// query # input compound: N[C@@H](Cc1c[nH]cn1)C(=O)O [Histidine] ; wanted: its log10 conductivity
// result 2.33

---

Test: Buffer capacity, pH and conductivity of buffers used on the APEX chip
Details: NaPO4: 20 mM adjusted to pH 7.4
PH vs 7: at or above is 1, below is 0.

{"columns": ["Compound", "Group Label"],
 "data": [
  ["NCCCC[C@H](N)C(=O)O", 1]
]}

// query Assess whether reported PH for N[C@@H](Cc1c[nH]cn1)C(=O)O sits at 7 or higher.
// result 1

// query Hi team, for N[C@@H](CS)C(=O)O , is the recorded PH at or above 7?
// result 0

// query Can O=P(O)(O)O [NaPO4, Sodium Phosphate] be said to have PH at or above 7?
// result 1

// query Does NCCC(=O)O have a reported PH of at least 7?
// result 1

// query I'd appreciate it if you could say whether NCCS(=O)(=O)O has PH at least equal to 7.
// result 0

---

Experiment: Conductivity measurements of transport buffers
Type: physicochemical
Conditions: conductivity
Below, each of the molecules is paired with its reported Average/Std. Deviation value.

Examples with their reported Average/Std. Deviation follow.
{"columns": ["Molecule", "Result Value"],
 "data": [
  ["N[C@@H](CS)C(=O)O [Cysteine]", "22.7 +/− 5.09 μS/cm"],
  ["O=C([O-])CC(O)(CC(=O)[O-])C(=O)[O-].[Na+].[Na+].[Na+] [3.3 mM NaCitrate, sodium citrate]", "986 +/− 38.1 μS/cm"],
  ["O=S(=O)(O)CCN1CCN(CCO)CC1 [250 mM HEPES, HEPES]", "147.6 +/− 9.07 μS/cm"]
]}

// query Please give the measured Average/Std. Deviation for this molecule: [Cl-].[Cl-].[Mg+2] [10 mM MgCl2, MgCl2]
// result 2.03 +/− 0.09 mS/cm

// query Return reported Average/Std. Deviation; argument: [Cl-].[Na+] [10 mM NaCl, NaCl]
// result 1.12 +/− 0.057 mS/cm

Just for reference, patent US8114589B2 is where these values come from.
